- Test system: Escherichia coli TOP10;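 also: peptides expressed intracellularly from a pBAD plasmid library in pooled LB shake-flask culture, induced with 0.3% L-arabinose, DNA abundance read by NGS, three biological replicates, DESeq2 with apeglm shrinkage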
- Measurement Description: shrunken log2 fold change of peptide-encoding DNA abundance (4.5 h post-induction vs induction); higher = less antimicrobial activity (less host growth inhibition)
- Condition Details: time post-induction: 4.5 h; library: site-saturation at positions 5, 18, 19, 20
Binary classification by shrunken log2 fold change, with -0.008 as an inclusive lower bound for satisfied; all other cases are not satisfied.

Completed entries (count: 6):
> print(dat)
             residue.codes  classification
1  RRIRARPPRLPRPRPRPEKRPRP       satisfied
2  RRIRRRPPRLPRPRPRPEYCPRP       satisfied
3  RRIRGRPPRLPRPRPRPKDHPRP       satisfied
4  RRIRDRPPRLPRPRPRPVMKPRP   not satisfied
5  RRIRGRPPRLPRPRPRPTEQPRP       satisfied
6  RRIRHRPPRLPRPRPRPYPSPRP   not satisfied

Could you please find out whether `RRIRGRPPRLPRPRPRPGTWPRP` has shrunken log2 fold change that meets -0.008 or exceeds it? satisfied

Hi, just wondering whether `RRIRCRPPRLPRPRPRPEEIPRP` shows shrunken log2 fold change of -0.008 or higher. not satisfied

Answer whether shrunken log2 fold change of `RRIRKRPPRLPRPRPRPWGSPRP` is greater than or equal to -0.008. not satisfied

Does the reported shrunken log2 fold change for `RRIRWRPPRLPRPRPRPLYQPRP` fall at or above the -0.008 mark? not satisfied

Hello, I need to know if `RRIRMRPPRLPRPRPRPICKPRP` has measured shrunken log2 fold change not below -0.008. Thanks! not satisfied

Identify whether the reported shrunken log2 fold change of the following sequence is -0.008 or greater: `RRIRRRPPRLPRPRPRPPKAPRP` satisfied

Quick check, shrunken log2 fold change >= -0.008? `RRIRFRPPRLPRPRPRPKMPPRP` not satisfied

Hi team, for `RRIRPRPPRLPRPRPRPMQPPRP` , is the recorded shrunken log2 fold change at or above -0.008? satisfied

Has `RRIRTRPPRLPRPRPRPCDHPRP` a recorded shrunken log2 fold change greater than or equal to -0.008? not satisfied
